experiment: Pharmacokinetics of free drugs in Sprague-Dawley rats; type: in vivo, rat; conditions: rat, blood; female Sprague-Dawley rats, IV bolus, dose level 0.1 mg/kg; read-out: AUC0-last ± SE
metric_name: AUC(0-t) (ng·h/mL)
Use ng·h/mL as the unit, but write only the number.

CN[C@H](C(=O)N[C@H](C(=O)N(C)[C@H](/C=C(\C)C(=O)O)C(C)C)C(C)(C)C)C(C)(C)c1cccc(N)c1 [free drug (I)]
11

Lookup: Recorded AUC(0-t) of COc1cc2cc(c1Cl)N(C)C(=O)C[C@H](OC(=O)[C@H](C)N(C)C(=O)CCC(C)(C)S)[C@]1(C)O[C@H]1[C@H](C)[C@@H]1C[C@@](O)(NC(=O)O1)[C@H](OC)/C=C/C=C(/C)C2 [free drug (II)] , please.
Found: 96.9

The values you see were collected from patent US10596270B2.
